Field: response. Provide a value for each of the variants that follow.
B1: recombinant soluble CD40L (residues 118–261) with no N-terminal KGD motif, wild type [not stated] / CD40 fragment (residues 21–144) fused to GST [not stated] (parent complex)
chain 1: QNPQIAAHVISEASSKTTSVLQWAEKGYYTMSNNLVTLENGKQLTVKRQGLYYIYAQVTFCSNREASSQAPFIASLCLKSPGRFERILLRAANTHSSAKPCGQQSIHLGGVFELQPGASVFVNVTDPSQVSHGTGFTSFGLLKL
chain 2: EPPTACREKQYLINSQCCSLCQPGQKLVSDCTEFTETECLPCGESEFLDTWNRETHCHQHKYCDPNLGLRVQQKGTSETDTICTCEEGWHCTSEACESCVLHRSCSPGFGVKQIATGVSDTICE

# Variants of: B1
# test.summary: ELISA; GST-CD40 (21–144) immobilized at 100 μg/ml in PBS; CD40L mutants 20 μg/ml; detection with anti-histidine Abs; read off a plot

chain 1 S11R, chain 1 E12G: ~0.29 OD450
chain 1 L38P: ~0.24 OD450

Batch: response for all items listed.
1. chain 1 K26T
2. chain 1 G27E

~0.32 OD450
~0.35 OD450
